# targetOfAssay: Transcription regulator protein BACH1 (Homo sapiens)
# experimentNotes: Inhibition of Bach1 in normal human lung fibroblasts assessed as induction of HMOX protein expression at 0.156 uM incubated for 16 to 18 hrs by immunostaining relative to control
endpoint: fold change (FC)

CN(C)C(=O)CNC(=O)c1ccc2c(c1)nc(Nc1nc3ccc(C(F)(F)F)cc3s1)n2C    2.66

I: CNC(=O)c1ccc2c(c1)nc(Nc1nc3ccc(OC(F)(F)F)cc3s1)n2C
II: Cn1c(Nc2nc3ccc(C(F)(F)F)cc3s2)nc2cc(C(=O)NCCOCCO)ccc21
III: COCCNC(=O)c1cnc2c(c1)nc(Nc1nc3ccc(OC(F)(F)F)cc3s1)n2C
Rank the items in ascending order with respect to fold change (FC). A ranking is expressed here by listing the labels in the requested order.
III, I, II
(III: 1.96, I: 3.46, II: 6.46)
